Give measured concentration at 24 h for each item. Keep answers brief.
# protocol-details: Drug concentration in Sprague-Dawley rat liver at 5 mg/kg, po measured for 24 hrs by LC-MS/MS analysis
# Type: ADME, organism-based
# stated-conditions: read-out: Ct
Give bare numbers, in ng/g.

>>> endpoint_result("CC(C)(C)[C@@H]1Cc2c(nc3c(C(F)(F)F)cc(C4CC4)cn23)-c2[nH]c(=O)c(C(=O)O)cc21")
6140

// sample `COc1cc(OC(F)F)c2nc3c(n2c1)C[C@@H](C(C)(C)C)c1cc(C(=O)O)c(=O)[nH]c1-3` , its concentration at 24 h was 13900
